target: T1, cyno FcRn/b2M (cyno, UniProt Q8SPV9 24-297; Q8SPW0 21-119, biotinylated); test: SPR pH 6.0
T1 construct: bought recombinant biotinylated protein (Immunitrack ITF05 or ACRO FCM-C82W5); also called cFcRn; cFcRn/cb2M
T1 sequence (Q8SPV9 24-297 limits assumed, chain 1 of 2): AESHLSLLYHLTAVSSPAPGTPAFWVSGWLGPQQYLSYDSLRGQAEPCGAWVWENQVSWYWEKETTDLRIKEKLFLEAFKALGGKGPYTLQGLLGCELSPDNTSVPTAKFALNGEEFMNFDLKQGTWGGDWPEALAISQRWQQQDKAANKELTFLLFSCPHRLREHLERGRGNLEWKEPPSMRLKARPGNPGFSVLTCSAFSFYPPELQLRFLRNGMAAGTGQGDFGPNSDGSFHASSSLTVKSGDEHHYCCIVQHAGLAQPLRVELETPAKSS
T1 sequence (Q8SPW0 21-119 limits assumed, chain 2 of 2): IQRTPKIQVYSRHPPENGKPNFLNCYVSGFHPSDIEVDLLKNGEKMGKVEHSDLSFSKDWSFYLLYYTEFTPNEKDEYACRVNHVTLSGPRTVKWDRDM
pKd: −log10 of the molar value.
Reported endpoint: pKd

# return recorded pKd for input T026301117 (VHH, name in Kabat numbering, tagless) VHH: EVQLVESGGGVVQPGGSLRLSCAASGFTFSEYAMYWVRQAPGKGLEWVSAISSGGGSTDYADSVKGRFTISRDNSKNTLYLQMNSLRPEDTALYYCAADTLYTSLTSYSYWGQGTLVTVSS 6.96

Give the measured pKd for T026301098 (VHH, name in Kabat numbering, tagless; also called T0263018B11 S31D) VHH: EVQLVESGGGVVQPGGSLRLSCAASGFTFSDYAMYWVRQAPGKGLEWVSAISSGGGSTDYADSVKGRFTISRDNSKNTLYLQMNSLRPEDTALYYCAADTLYTSLTWYSYWGQGTLVTVSS 6.85

1: T026301080 (VHH, name in Kabat numbering, tagless) VHH: EVQLVESGGGVVQPGGSLRLSCAASGFTFSSYDMYWVRQAPGKGLEWVSAISSGGGSTDYADSVKGRFTISRDNSKNTLYLQMNSLRPEDTALYYCAADTLYTSLTSYSYWGQGTLVTVSS
2: T026301087 (VHH, name in Kabat numbering, tagless) VHH: EVQLVESGGGVVQPGGSLRLSCAASGFTFSEYDMYWVRQAPGKGLEWVSAISQGGGSTDYADSVKGRFTISRDNSKNTLYLQMNSLRPEDTALYYCAADTLYTSLTWYSYWGQGTLVTVSS
Would you let me know which has the greater pKd value, 1 or 2 ? Pick one; state its label. 2
